- Experimental system: (G4C2)8 hairpin RNA
- Test summary: Binding affinity to (G4C2)8 hairpin RNA (unknown origin) by TO-PRO-1 dye displacement assay
Can you tell me Kd for the items I'm about to list?
Express it in µM; write the number only.

Query: # return recorded Kd for input Cc1c2cc[n+](C)cc2c(C)c2c1[nH]c1ccc(O)cc12
Reply: 0.9

Query: # return recorded Kd for input CCN(CC)CC[n+]1ccc2c(C)c3[nH]c4ccc(O)cc4c3c(C)c2c1
Reply: 1.4

Query: # return recorded Kd for input N=C(N)c1ccc(Nc2ccc(-c3cc4ccc(C(=N)N)cc4[nH]3)cc2)cc1
Reply: 10

Query: # return recorded Kd for input CCN(CC)CCNC(=O)c1cc2cc(NC(=O)c3cc4cc(N)ccc4[nH]3)ccc2[nH]1
Reply: 16

###

Value type: IC50 (µM)
Express it in µM; write the number only.

Query: Give the observed IC50 of COc1cc(NC(=O)CCC2CCCN(Cc3ccc(F)c(OC)c3)C2)cc(OC)c1 (centres undefined) for TAR DNA-binding protein 43 (Homo sapiens, UniProt Q13148).
Reply: 0.1

Query: Give the observed IC50 of O=C1c2c(O)ccc(O)c2C(=O)c2c(NCCNCCO)ccc(NCCNCCO)c21 for TAR DNA-binding protein 43 (Homo sapiens, UniProt Q13148).
Reply: 10

Query: Give the observed IC50 of NC(=O)CCCCC1CCSS1 (racemic) [THIOCTIC ACID AMIDE] for TAR DNA-binding protein 43 (Homo sapiens, UniProt Q13148).
Reply: 20

###

Value type: pKd
Remember the convention: pKd equals -log10 of concentration in molar.

Query: Give the observed pKd of NC(=O)c1cncc(N2CCCC(CO)(Cc3ccc(F)cc3)C2)n1 (stereo unspecified) for UniProtKB Q13148.
Reply: 4.05

Origin of values: ChEMBL document CHEMBL4627248
